# Tested on: MES SA DX (MES SA cell line with marked multidrug resistance)
# Measurement Protocol: 72 h killing (cytotoxicity) assay, MES SA DX
# Assay type: cell-based, human
# Assay Setup: MES DX (MES SA DX) cells, multidrug resistant; read-out: Cytotoxic activity IC50
Non-standard residues stand in square brackets, D forms with d. Residues, ends and D or L forms follow the SMILES beside them. *: point of attachment. Dolaproine = CO[C@@H]([C@@H]1CCCN1)[C@@H](C)C(=O)O; Dil = CC[C@H](C)[C@H](NC)[C@@H](CC(=O)O)OC; X1 = C[C@@H](N*)[C@@H](O)c1ccccc1; NMeV = CN[C@H](C(=O)O)C(C)C

{"columns": ["Molecule", "Display Unit", "IC50"],
 "data": [
  ["CC[C@H](C)[C@@H]([C@@H](CC(=O)N1CCC[C@H]1[C@H](OC)[C@@H](C)C(=O)N[C@H](C)[C@@H](O)c1ccccc1)OC)N(C)C(=O)[C@@H](NC(=O)[C@@H](NC)C(C)C)C(C)C [MMAE, monomethyl auristatin E] (H-[NMeV]V[Dil][Dolaproine]-X1)", "nM", 106]
]}
